In this section, each of the variants is paired with its reported unfolding enthalpy (calorimetric).
B1: Lysozyme C, P61626 (parent)
chain: MKALIVLGLVLLSVTVQGKVFERCELARTLKRLGMDGYRGISLANWMCLAKWESGYNTRATNYNAGDRSTDYGIFQINSRYWCNDGKTPGAVNACHLSCSALLQDNIADAVACAKRVVRDPQGIRAWVAWRNRCQNRDVRQYVQGCGV

Variants of: B1
Details: Homo sapiens; pH 3; Thermal; DSC; glycine 0.05 M; reversible: yes; structure 1LZ1; whole UniProt chain shown
Write the numeric value and append its unit.

These solved cases illustrate the format of a correct answer.
| query sequence | unfolding enthalpy (calorimetric) |
| --- | --- |
| MKALIVLGLVLLSVTVQGKVFERCELARTLKRLGMDGYRGISLANWMCLAKWESGYNTRATNYNAGDRSTDYGIFQINSRYWCNDGKTPGAVNACHLSCSALLQDNIADAVACAKRVVRDPQGIRAWAAWRNRCQNRDVRQYVQGCGV [V128A] | 89 kcal/mol |
| MKALIVLGLVLLSVTVQGKVFERCELARTLKRLGMDGYRGISLANWMCLAKWESGYNTRATNYNAGDRSTDYGIFQVNSRYWCNDGKTPGAVNACHLSCSALLQDNIADAVACAKRVVRDPQGIRAWVAWRNRCQNRDVRQYVQGCGV [I77V] | 74.2 kcal/mol |
| MKALIVLGLVLLSVTVQGKVFERCELARTLKRLGMDGYRGISLANWMCLAKWESGYNTRATNYNAGDRSTDYGIFQINSRYWCNDGKTPGAVNACHLSCSALLQDNIADAVACAKRVVRDPQGVRAWVAWRNRCQNRDVRQYVQGCGV [I124V] | 70.6 kcal/mol |
| MKALIVLGLVLLSVTVQGKVFERCELARTLKRLGMDGYRGISLANWMCLAKWESGYNTRATNYNAGDRSTDYGVFQINSRYWCNDGKTPGAVNACHLSCSALLQDNIADAVACAKRVVRDPQGIRAWVAWRNRCQNRDVRQYVQGCGV [I74V] | 69.4 kcal/mol |

Attention now shifts to the item below.
Please give the measured unfolding enthalpy (calorimetric) for this variant: MKALIVLGLVLLSVTVQGKVFERCELARTLKRLGMDGYRGISLANWMCLAKWESGYNTRATNYNAGDRSTDYGIFQINSRYWCNDGKTPGAVNACHLSCSALLQDNIADAVACAKRVVRDPQGIRAWVAWRNRCQNRDARQYVQGCGV [V139A]
61.5 kcal/mol

Sourced from FireProtDB (doi:10.1006/jmbi.1998.1906)
